Experimental details: Pharmacokinetics of capsules in male SD rats
Test parameters: male, SD, rat, plasma, po, 2 mg/kg, Tmax, individual rat, capsule, male SD rat
Measurement name: Tmax (h)
Value expressed in h; do not type the unit.

In: Endpoint output: Tmax of Nc1ncn([C@H]2C[C@H](O)[C@@H](CO)S2)c(=O)n1 . Value?
Out: 2

----------
Experimental details: Pharmacokinetics of capsules in male SD rats
Test parameters: male, SD, rat, plasma, oral, 2 mg/kg, Concentration (plasma), Mean, 24 h, capsule, mean of two male SD rats
Measurement name: concentration at 24 h (ng/mL)
Write the answer as a number in ng/mL, unit excluded.

In: What concentration at 24 h value was documented for this compound, Nc1ncn([C@H]2C[C@H](O)[C@@H](CO)S2)c(=O)n1 ?
Out: 3.57

----------
Test system: blood cancer cells (Mv4-11)
Experimental details: IC50 in blood cancer cells (Mv4-11) at different exposure times
Format: cell-based
Test parameters: Homo sapiens; Mv4-11; expected from the IC50 measured at 1 hr; read-out: expected IC50 at 4 hr
Measurement name: pIC50
// pIC50 is dimensionless: -log10 of concentration (M)

In: Requested field: pIC50. Item: Nc1ncn([C@H]2C[C@H](O)[C@@H](CO)S2)c(=O)n1 [SM, 5-Aza-4′-thio-2′-deoxycytidine]
Out: 7.70

----------
Experimental details: Thermodynamic solubility, shake-flask method
Assay type: physicochemical
Test parameters: organic solvent or mixture, thermodynamic from solid; Dimethylformamide; RT, 24 hours
Measurement name: solubility at 24 h

In: So what does the record say about solubility at 24 h for Nc1ncn([C@H]2C[C@H](O)[C@@H](CO)S2)c(=O)n1 ?
Out: 65.8 mg/mL

----------
Experimental details: Pharmacokinetics of capsules in male SD rats
Test parameters: male, SD, rat, plasma, po, 2 mg/kg, Tmax, Mean, capsule, mean of two male SD rats
Measurement name: Tmax (h)
Just the number in h, nothing appended.

In: Recorded Tmax of Nc1ncn([C@H]2C[C@H](O)[C@@H](CO)S2)c(=O)n1 , please.
Out: 2

----------
Experimental details: Thermodynamic solubility, shake-flask method
Assay type: physicochemical
Test parameters: organic solvent or mixture, thermodynamic from solid; 2-propanol; RT, 24 hours
Measurement name: solubility at 24 h (µg/mL)
// note: answer is a bare numeric in µg/mL

In: Need solubility at 24 h, item Nc1ncn([C@H]2C[C@H](O)[C@@H](CO)S2)c(=O)n1
Out: 400

----------
Experimental details: in vivo
Test parameters: male, SD, rat, po, 2 mg/kg, Tmax, Mean
Measurement name: Tmax (h)
Unit h implied. Number only.

In: // Tmax lookup, key: Nc1ncn([C@H]2C[C@H](O)[C@@H](CO)S2)c(=O)n1 [Form F, 5-Aza-4′-thio-2′-deoxycytidine]
Out: 1

----------
Experimental details: in vivo
Test parameters: male, SD, rat, 2 mg/kg, Concentration (plasma), individual rat
Measurement name: concentration at 24 h (ng/mL)
The reply should contain only the number, in ng/mL.

In: For the compound Nc1ncn([C@H]2C[C@H](O)[C@@H](CO)S2)c(=O)n1 [Form F, 5-Aza-4′-thio-2′-deoxycytidine] , what concentration at 24 h is on record?
Out: 7.04

----------
Experimental details: Pharmacokinetics of capsules in male SD rats
Test parameters: male, SD, rat, plasma, oral, 2 mg/kg, Concentration (plasma), individual rat, 6 h, capsule, male SD rat
Measurement name: concentration at 6 h (ng/mL)
// units = ng/mL; emit number, no label

In: Reported concentration at 6 h for Nc1ncn([C@H]2C[C@H](O)[C@@H](CO)S2)c(=O)n1 : what is it?
Out: 261

----------
Experimental details: in vivo
Test parameters: male, SD, rat, 2 mg/kg, Concentration (plasma), individual rat
Measurement name: concentration at 8 h (ng/mL)
Express your answer in ng/mL, writing the number without its unit.

In: For the compound Nc1ncn([C@H]2C[C@H](O)[C@@H](CO)S2)c(=O)n1 [Form F, 5-Aza-4′-thio-2′-deoxycytidine] , what concentration at 8 h is on record?
Out: 245

----------
Experimental details: in vivo
Test parameters: male, SD, rat, po, 2 mg/kg, AUCInf, individual rat
Measurement name: AUC(0-inf) (ng·h/mL)
Provide the reading as a plain figure in ng·h/mL.

In: Given the entry Nc1ncn([C@H]2C[C@H](O)[C@@H](CO)S2)c(=O)n1 [Form F, 5-Aza-4′-thio-2′-deoxycytidine] , report its measured AUC(0-inf).
Out: 6210

----------
Experimental details: Pharmacokinetics of capsules in male SD rats
Test parameters: male, SD, rat, plasma, po, 2 mg/kg, Cmax, individual rat, capsule, male SD rat
Measurement name: Cmax (ng/mL)
Field format: number, assumed ng/mL, no unit text.

In: Query: Cmax; subject: Nc1ncn([C@H]2C[C@H](O)[C@@H](CO)S2)c(=O)n1
Out: 700

----------
Experimental details: Thermodynamic solubility, shake-flask method
Assay type: physicochemical
Test parameters: organic solvent or mixture, thermodynamic from solid; Chloroform; RT, 24 hours
Measurement name: solubility at 24 h

In: # query: solubility at 24 h of entry Nc1ncn([C@H]2C[C@H](O)[C@@H](CO)S2)c(=O)n1
Out: < 100 µg/mL

----------
Experimental details: Thermodynamic solubility, shake-flask method
Format: physicochemical
Test parameters: organic solvent or mixture, thermodynamic from solid; Tetrahydrofuran; RT, 24 hours
Measurement name: solubility at 24 h
Your reply should be a number followed by the unit it is expressed in.

In: Entry Nc1ncn([C@H]2C[C@H](O)[C@@H](CO)S2)c(=O)n1 has what solubility at 24 h?
Out: 100 µg/mL

----------
Experimental details: Thermodynamic solubility, shake-flask method
Format: physicochemical
Test parameters: organic solvent or mixture, thermodynamic from solid; 1,2-dimethoxyethane; RT, 24 hours
Measurement name: solubility at 24 h (µg/mL)
I only need the number, in µg/mL, no unit after it.

In: Any idea what solubility at 24 h was measured for Nc1ncn([C@H]2C[C@H](O)[C@@H](CO)S2)c(=O)n1 ?
Out: 100

----------
Experimental details: in vivo
Test parameters: male, SD, rat, po, 2 mg/kg, T1/2, individual rat
Measurement name: half-life (h)
Express the result in h but write the number alone.

In: What half-life value was documented for this compound, Nc1ncn([C@H]2C[C@H](O)[C@@H](CO)S2)c(=O)n1 [Form F, 5-Aza-4′-thio-2′-deoxycytidine] ?
Out: 3.15

----------
Experimental details: Thermodynamic solubility, shake-flask method
Type: physicochemical
Test parameters: organic solvent or mixture, thermodynamic from solid; Ethyl acetate; RT, 24 hours
Protocol: The thermodynamic solubility of aza-T-dCyd was determined according to the shake-flask method. Suspensions of the crystalline aza-T-dCyd were prepared in 25 neat solvents. Small aliquots of solvent were added to the aza-T-dCyd until thin suspensions were obtained. […] After equilibration, a small aliquot of mother liquor was filtered and analyzed by HPLC. The concentration of the solute was determined against a calibration curve of the aza-T-dCyd. […]
Measurement name: solubility at 24 h

In: Fill in: solubility at 24 h of Nc1ncn([C@H]2C[C@H](O)[C@@H](CO)S2)c(=O)n1 is ___
Out: < 100 µg/mL

----------
Experimental details: Pharmacokinetics of capsules in male SD rats
Test parameters: male, SD, rat, plasma, oral, 2 mg/kg, Concentration (plasma), individual rat, 8 h, capsule, male SD rat
Measurement name: concentration at 8 h (ng/mL)
# value in ng/mL; strip the unit string

In: For the molecule shown here, Nc1ncn([C@H]2C[C@H](O)[C@@H](CO)S2)c(=O)n1 , give the reported concentration at 8 h.
Out: 156

----------
Experimental details: Thermodynamic solubility, shake-flask method
Assay type: physicochemical
Test parameters: organic solvent or mixture, thermodynamic from solid; Acetonitrile; RT, 24 hours
Measurement name: solubility at 24 h (µg/mL)
Response body: numeric value in µg/mL, unit text excluded.

In: What value of solubility at 24 h has been reported for the following compound? Nc1ncn([C@H]2C[C@H](O)[C@@H](CO)S2)c(=O)n1
Out: 100

----------
Experimental details: in vivo
Test parameters: male, SD, rat, 2 mg/kg, Concentration (plasma), Mean
Measurement name: concentration at 1 h (ng/mL)
Only the number, expressed in ng/mL, is required.

In: # get_value(readout='concentration at 1 h', item= Nc1ncn([C@H]2C[C@H](O)[C@@H](CO)S2)c(=O)n1 [Form F, 5-Aza-4′-thio-2′-deoxycytidine] )
Out: 934

----------
Experimental details: Thermodynamic solubility, shake-flask method
Assay type: physicochemical
Test parameters: organic solvent or mixture, thermodynamic from solid; tert-butyl methyl ether; RT, 24 hours
Protocol: The thermodynamic solubility of aza-T-dCyd was determined according to the shake-flask method. Suspensions of the crystalline aza-T-dCyd were prepared in 25 neat solvents. Small aliquots of solvent were added to the aza-T-dCyd until thin suspensions were obtained. […] After equilibration, a small aliquot of mother liquor was filtered and analyzed by HPLC. The concentration of the solute was determined against a calibration curve of the aza-T-dCyd. […]
Measurement name: solubility at 24 h

In: Requested field: solubility at 24 h. Item: Nc1ncn([C@H]2C[C@H](O)[C@@H](CO)S2)c(=O)n1
Out: < 100 µg/mL

The reported numbers originate from patent US11447472B2.
